Origin of measurements: paper PMC10740956

Molecular target: hMAO-B (Homo sapiens)
Sequence (P27338 whole entry): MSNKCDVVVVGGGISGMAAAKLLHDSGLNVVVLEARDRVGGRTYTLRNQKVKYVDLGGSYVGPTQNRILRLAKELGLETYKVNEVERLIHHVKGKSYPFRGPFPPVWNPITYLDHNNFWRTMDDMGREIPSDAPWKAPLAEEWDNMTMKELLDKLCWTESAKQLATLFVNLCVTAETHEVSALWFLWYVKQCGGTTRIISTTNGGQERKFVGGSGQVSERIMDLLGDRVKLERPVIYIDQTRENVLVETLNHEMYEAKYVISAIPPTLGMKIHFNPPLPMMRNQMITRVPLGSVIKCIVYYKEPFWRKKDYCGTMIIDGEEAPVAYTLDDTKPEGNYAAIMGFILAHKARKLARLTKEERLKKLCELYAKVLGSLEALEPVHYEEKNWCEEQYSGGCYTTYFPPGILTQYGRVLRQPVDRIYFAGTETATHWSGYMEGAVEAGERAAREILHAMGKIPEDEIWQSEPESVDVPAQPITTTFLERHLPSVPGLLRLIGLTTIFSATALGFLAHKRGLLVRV
Test: hMAO-B inhibition, recombinant enzyme, kynuramine substrate, fluorescence
Details: Lineweaver-Burk plots
quantity: Ki (nM)
Write the value in nM as a bare number.

Q) Please indicate recorded Ki of `C#CCCCCOc1ccc2ccc(=O)oc2c1` measured with hMAO-B (Homo sapiens).
A) 2.3

---

Test system hCA II (Homo sapiens, UniProt P00918), Ki listed for each of the compounds.

1) C#CCCCOc1cc(=O)oc2ccccc12 [Compound 1, 4-(Pent-4-yn-1-yloxy)-2H-chromen-2-one] = > 10 µM
2) C#CCOc1ccc2ccc(=O)oc2c1 [Compound 5, 7-(Prop-2-ynyloxy)-2H-chromen-2-one] = > 10 µM
3) C#CCCCCOc1cc(=O)oc2ccccc12 [Compound 2, 4-(Hex-5-yn-1-yloxy)-2H-chromen-2-one] = > 10 µM
4) CC#CCOc1ccc2ccc(=O)oc2c1 [Compound 6, 7-(But-2-yn-1-yloxy)-2H-chromen-2-one] = > 10 µM
5) CC#CCOc1ccc2oc(=O)ccc2c1 [Compound 4, 6-(But-2-yn-1-yloxy)-2H-chromen-2-one] = > 10 µM
6) CCC#CCOc1ccc2ccc(=O)oc2c1 [Compound 7, 7-(Pent-2-yn-1-yloxy)-2H-chromen-2-one] = > 10 µM
7) C#CCCCCOc1ccc2ccc(=O)oc2c1 [Compound 9, 7-(Hex-5-yn-1-yloxy)-2H-chromen-2-one] = > 10 µM

For the next question, use this compound.
Q) For the compound C#CCCCOc1ccc2ccc(=O)oc2c1 [Compound 8, 7-(Pent-4-yn-1-yloxy)-2H-chromen-2-one] , report Ki.
A) > 10 µM
